assay: Solubility of PMIDA in water and HCl at various temperatures and pressures; type: physicochemical; details: 7.5% HCl, 37.8 °C, aqueous buffer, thermodynamic from solid, Atm., 100° F.
value.type: solubility thermodynamic (mg/mL)

> print(dat)
            chemical.structure                value.type  obs.value
1  O=C(O)CN(CC(=O)O)CP(=O)(O)O  solubility thermodynamic       17.4

====

Test: Solubility of PMIDA in water and HCl at various temperatures and pressures
Format: physicochemical
Conditions: 15% HCl, 65.6 °C, aqueous buffer, thermodynamic from solid, Atm., 150° F.
Source text: In certain embodiments, the organophosphorous compound comprising a phosphonoalkyl moiety is at least partially solubilized in the acid component. […]
value.type: solubility thermodynamic (mg/mL)

> print(dat)
                                   molecule  obs.value
1  O=C(O)CN(CC(=O)O)CP(=O)(O)O [PMIDA, N-(phosphonomethyl)iminodiacetic acid]       72.2

====

experiment: Solubility of PMIDA in water and HCl at various temperatures and pressures; type: physicochemical; settings: 15% HCl, 65.6 °C, aqueous buffer, thermodynamic from solid, 200 psi, 150° F.
value.type: solubility thermodynamic

> print(dat)
            chemical.structure                value.type   obs.value
1  O=C(O)CN(CC(=O)O)CP(=O)(O)O  solubility thermodynamic  95.7 mg/mL

====

test: Solubility of PMIDA in water and HCl at various temperatures and pressures; format: physicochemical; conditions: 15% HCl, 93.3 °C, aqueous buffer, thermodynamic from solid, Atm., 200° F.
value.type: solubility thermodynamic (mg/mL)

> print(dat)
            chemical.structure  units.of.measure  obs.value
1  O=C(O)CN(CC(=O)O)CP(=O)(O)O             mg/mL        166

====

test: Solubility of PMIDA in water and HCl at various temperatures and pressures; format: physicochemical; conditions: 15% HCl, 37.8 °C, aqueous buffer, thermodynamic from solid, 200 psi, 100° F.
value.type: solubility thermodynamic (mg/mL)

> print(dat)
            chemical.structure                value.type  obs.value
1  O=C(O)CN(CC(=O)O)CP(=O)(O)O  solubility thermodynamic       41.1

====

assay: Solubility of PMIDA in water and HCl at various temperatures and pressures; format: physicochemical; details: 15% HCl, 37.8 °C, aqueous buffer, thermodynamic from solid, Atm., 100° F.
value.type: solubility thermodynamic (mg/mL)

> print(dat)
            chemical.structure                value.type  obs.value
1  O=C(O)CN(CC(=O)O)CP(=O)(O)O  solubility thermodynamic       30.6

====

test: Solubility of PMIDA in water and HCl at various temperatures and pressures; format: physicochemical; conditions: 10% HCl, 93.3 °C, aqueous buffer, thermodynamic from solid, Atm., 200° F.
value.type: solubility thermodynamic (mg/mL)

> print(dat)
            chemical.structure  obs.value
1  O=C(O)CN(CC(=O)O)CP(=O)(O)O        101

====

Assay: Solubility of PMIDA in water and HCl at various temperatures and pressures
Assay type: physicochemical
Conditions: 7.5% HCl, 65.6 °C, aqueous buffer, thermodynamic from solid, Atm., 150° F.
Source text: In certain embodiments, the organophosphorous compound comprising a phosphonoalkyl moiety is at least partially solubilized in the acid component. […]
value.type: solubility thermodynamic (mg/mL)

> print(dat)
            chemical.structure                value.type  units.of.measure  obs.value
1  O=C(O)CN(CC(=O)O)CP(=O)(O)O  solubility thermodynamic             mg/mL       39.7
